Every entry's value here was drawn from patent US20260034111A1.

assayed_system: sPLA2-X protein (Homo sapiens)
Sequence (O15496 43-165): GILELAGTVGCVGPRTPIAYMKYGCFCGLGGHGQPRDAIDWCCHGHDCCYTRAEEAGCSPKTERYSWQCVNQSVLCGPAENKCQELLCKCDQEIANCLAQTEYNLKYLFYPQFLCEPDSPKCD
test_description: sPLA2-X enzyme inhibition assay (thio-PC substrate, DTNB detection, absorbance 410 nm)
Assay type: biochemical
Design: made in house; host or cells: E. coli
condition_details: class symbols; read-out: sPLA2 Type X Inhibition (IC50; nM)
recorded_metric: IC50

Worked examples follow.
NC(=O)c1cc2ccc(OC(F)(F)F)cc2n1-c1ccc2c(c1)C(CC(=O)O)CO2 (single isomer, unassigned; (-)) [Compound 1b] : > 200 nM
NC(=O)c1cc2ccc(OC(F)(F)F)cc2n1-c1cccc([C@@H]2C[C@H]2C(=O)O)n1 (single isomer, unassigned) [Compound 28b] : > 200 nM

// next entry
## Input Which IC50 value belongs to NC(=O)c1cc2ccc(OC(F)(F)F)cc2n1-c1cccc(C2(CC(=O)O)CC2)c1 ?
## Output < 20 nM
